Known z-score of a selection of compounds
assay: Plasmodium falciparum growth inhibition, primary screen, strain 3D7, DAPI fluorescence, 100 nL (AID 1184);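 further: parasites grown inside human red blood cells in medium with human serum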; settings: P. falciparum 3D7 growth, 3 d, higher = more signal

A selection of reference data follows.
compound=C=CCOC(=O)[C@H]1[C@@H]2C(=O)O[C@@H](c3ccccc3)[C@@H](c3ccccc3)N2[C@@H](c2ccc(OCCOC(=O)[C@H]3C[C@H]4C(=O)N[C@@H](CCCCNC(C)=O)C(=O)N4[C@H]3c3cccc(OCCO)c3)cc2)[C@]12C(=O)Nc1ccccc12 reading=-1.69
compound="CN1C=C(C(=O)OCCS(C)(=O)=O)C(C(=O)OCCS(C)(=O)=O)=CC(c2ccc(CO)cc2)=CC1C1CC1 (stereo not drawn)" reading=-2.35

// query Which measured z-score value corresponds to COc1ccc(C#Cc2ccc3c(c2)[C@]2(C(=O)N3)[C@H](C(=O)NC[C@H](O)c3ccccc3)[C@H]3C(=O)O[C@H](c4ccccc4)[C@H](c4ccccc4)N3[C@@H]2c2ccc(O)cc2)cc1 ?
// result -0.0029

Source: PubChem BioAssay
